Would you kindly list logD for each of these molecules?
assay procedure: Log D (shake flask, 1-octanol/aqueous buffer)
Type: physicochemical
experimental setup: 1-octanol/aqueous buffer, pH 7.4, pH 7.4

Requested field: logD. Item: C[C@@H]1Cc2c([nH]c3c(F)cccc23)[C@@H](c2c(F)ccc(OCCNCCCF)c2F)N1CC(F)(F)CO
3

Try C[C@@H]1Cc2c([nH]c3ccc(F)cc23)[C@@H](c2c(F)cnc(OCCN(C)CCCF)c2F)N1CC(F)(F)CO next.
4

Try COc1ccc(OCCNCCC(F)(F)F)cc1[C@@H]1c2[nH]c3ccccc3c2C[C@@H](C)N1CC(F)(F)F next.
5.2

Try C[C@@H]1Cc2c([nH]c3ccccc23)[C@@H](c2c(F)ccc(OCCNCCCF)c2Cl)N1CC(C)(C)C(=O)O next.
1.2

Try Cc1c(OCCNCCCF)ncc(F)c1[C@@H]1c2[nH]c3ccccc3c2C[C@@H](C)N1CC(F)(F)CO next.
3.1

Try Cc1ncc(OCCNCCCF)cc1[C@@H]1c2[nH]c3ccccc3c2C[C@@H](C)N1CC(F)(F)F next.
3.6

Try C[C@@H]1Cc2c([nH]c3ccccc23)[C@@H](c2nccc(OCCNCCCF)c2Cl)N1CC(F)(F)F next.
4.3

Try C[C@@H]1Cc2c([nH]c3ccccc23)[C@@H](c2cc(OCCNCCCF)ccc2Cl)N1CC(F)(F)CO next.
3.3

====

Would you kindly list Human plasma protein binding (% free) for each of these compounds?
assay procedure: Human plasma protein binding (equilibrium dialysis)
Format: in vitro ADME
Please reply with the bare figure in % free and do not write the unit itself.

Requested field: Human plasma protein binding (% free). Item: Cc1c([C@@H]2c3[nH]c4ccccc4c3C[C@@H](C)N2CC(F)(F)CO)ccnc1OCCNCCCF
2

Try Cc1c(OCCNCCCF)ncnc1[C@@H]1c2[nH]c3ccccc3c2C[C@@H](C)N1CC(F)(F)CO next.
11

Try Cc1ncc(OCCNCCCF)cc1[C@@H]1c2[nH]c3ccccc3c2C[C@@H](C)N1CC(F)(F)F next.
2.3

Try COc1ccc(NCCNCCCF)nc1[C@@H]1c2[nH]c3ccccc3c2C[C@@H](C)N1CC(F)(F)F next.
2.8

Try C[C@@H]1Cc2c([nH]c3ccccc23)[C@@H](c2c(F)ccc(OCCN(C)CCCF)c2C(F)F)N1C[C@H](C)C(=O)O next.
10

Hey, just so you know, these numbers are from patent US10221173B2.
